Test: Half life in male beagle dog at 0.6 umol/kg, iv
Format: ADME, organism-based, Canis lupus familiaris
Details: in vivo
REPORTED ENDPOINT: half-life (min)
Report only the number, with the unit min understood.

Form field: reported half-life of `O=C(N[C@H]1C2CC3CC1C[C@](O)(C3)C2)c1cnc(N[C@H]2CCOC2)nc1C1CCCC1`
36

----------
Molecular target: UniProtKB P14061
Sequence (P14061 whole entry): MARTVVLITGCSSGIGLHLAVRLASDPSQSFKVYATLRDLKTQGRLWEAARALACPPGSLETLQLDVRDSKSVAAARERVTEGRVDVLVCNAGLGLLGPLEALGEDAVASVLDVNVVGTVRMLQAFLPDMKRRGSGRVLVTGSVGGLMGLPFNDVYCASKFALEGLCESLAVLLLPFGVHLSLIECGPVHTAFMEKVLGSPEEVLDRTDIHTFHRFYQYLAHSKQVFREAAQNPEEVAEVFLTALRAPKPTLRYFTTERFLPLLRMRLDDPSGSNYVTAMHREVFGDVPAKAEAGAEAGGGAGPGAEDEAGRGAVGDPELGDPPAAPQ
Assay: Inhibition of human 17beta-HSD1 by HPLC assay
REPORTED ENDPOINT: IC50

Write down the reported IC50 of `O=C(N[C@H]1C2CC3CC1C[C@](O)(C3)C2)c1cnc(NC2CCOCC2)nc1C1CCC1` , test system: UniProtKB P14061.
> 35 µM

----------
Test: Clearance in female beagle dog at 1 umol/kg, iv
Type: ADME, organism-based, Canis lupus familiaris
Details: in vivo
REPORTED ENDPOINT: clearance (mL/min/kg)
Give the value, in units of mL/min/kg, as a plain number.

Which clearance is reported for this molecule? `O=C(N[C@H]1C2CC3CC1C[C@](O)(C3)C2)c1cnc(NC2CCOCC2)nc1C1CCC1`
29

----------
Assay: Intrinsic clearance in human hepatocytes measured per 10^6 cells
Assay type: ADME, cell-based, Hepatocyte
Settings: read-out: CLH
REPORTED ENDPOINT: hepatocyte CLint

INPUT SMILES	hepatocyte CLint
O=C(N[C@H]1C2CC3CC1C[C@](O)(C3)C2)c1cnc(N[C@H]2CCOC2)nc1C1CCCC1	< 2 µL/min/1e6 cells

Could you share which hepatocyte CLint value was measured for `O=C(N[C@H]1C2CC3CC1C[C@](O)(C3)C2)c1cnc(NC2CCOCC2)nc1C1CCC1` ?
< 2 µL/min/1e6 cells

----------
Assay: Half life in female beagle dog at 0.6 umol/kg, iv
Assay type: ADME, organism-based, Canis lupus familiaris
Details: in vivo
REPORTED ENDPOINT: half-life (min)
Field format: number, assumed min, no unit text.

# query: half-life of entry `O=C(N[C@H]1C2CC3CC1C[C@](O)(C3)C2)c1cnc(N[C@H]2CCOC2)nc1C1CCCC1`
36

----------
Test: Volume of distribution at steady state in mouse at 4.7 umol/kg, iv
Assay type: ADME, organism-based
Details: in vivo, read-out: Vdss
Listed compounds paired with reported Vd

INPUT SMILES	Vd
O=C(N[C@H]1C2CC3CC1C[C@](O)(C3)C2)c1cnc(NC2CCOCC2)nc1C1CCC1	1.1 L/kg

Okay, now this compound:
Which Vd value belongs to `O=C(N[C@H]1C2CC3CC1C[C@](O)(C3)C2)c1cnc(N[C@H]2CCOC2)nc1C1CCCC1` ?
2.4 L/kg

----------
Assay: Oral bioavailability in female beagle dog at 1.2 umol/kg
Format: ADME, organism-based, Canis lupus familiaris
Conditions: in vivo
Reported bioavailability by item:
State the answer as a number, implicitly in %.

INPUT SMILES	bioavailability (%)
O=C(N[C@H]1C2CC3CC1C[C@](O)(C3)C2)c1cnc(N[C@H]2CCOC2)nc1C1CCCC1	30

Could you now consider this next compound?
What value of bioavailability has been reported for the following compound? `O=C(N[C@H]1C2CC3CC1C[C@](O)(C3)C2)c1cnc(NC2CCOCC2)nc1C1CCC1`
23

----------
A collection of compounds and their measured pIC50
Target: 11-beta-hydroxysteroid dehydrogenase 1 (Homo sapiens)
Sequence (P28845 whole entry): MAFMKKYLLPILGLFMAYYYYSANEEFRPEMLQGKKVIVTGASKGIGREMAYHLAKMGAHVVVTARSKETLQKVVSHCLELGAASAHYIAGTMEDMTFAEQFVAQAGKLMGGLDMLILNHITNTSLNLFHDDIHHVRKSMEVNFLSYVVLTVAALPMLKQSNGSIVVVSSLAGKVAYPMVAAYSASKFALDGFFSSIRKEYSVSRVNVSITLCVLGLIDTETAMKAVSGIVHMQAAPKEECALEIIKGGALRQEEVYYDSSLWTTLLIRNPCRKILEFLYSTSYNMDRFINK
Assay: Inhibition of human 11beta-HSD1 by HPLC assay
Please treat pIC50 as minus the base-10 logarithm of the molar concentration.

INPUT SMILES	TARGET SYSTEM	pIC50
O=C(N[C@H]1C2CC3CC1C[C@](O)(C3)C2)c1cnc(N[C@H]2CCOC2)nc1C1CCCC1	11-beta-hydroxysteroid dehydrogenase 1 (Homo sapiens)	8.80

Field: next compound
Would you mind telling me what pIC50 value was observed for `O=C(N[C@H]1C2CC3CC1C[C@](O)(C3)C2)c1cnc(NC2CCOCC2)nc1C1CCC1` ?
7.85

Origin of values: ChEMBL document CHEMBL2177079
